These measurements were taken from PubChem BioAssay.

# System Name: Streptavidin (Streptomyces avidinii) (UniProt P22629)
# Sequence (P22629 whole entry, looked up): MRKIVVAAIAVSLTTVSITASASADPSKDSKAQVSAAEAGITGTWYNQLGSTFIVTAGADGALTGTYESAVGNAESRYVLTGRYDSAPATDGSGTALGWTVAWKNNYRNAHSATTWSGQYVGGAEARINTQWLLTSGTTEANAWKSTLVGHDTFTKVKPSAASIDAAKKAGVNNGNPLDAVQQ
# Procedure Details: streptavidin binders on small-molecule microarray, primary screen, artefact control for SMM compound annotation, biophysical, 635/667 nm fluorescence (AID 1147);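 also: signal reflects streptavidin binding to arrayed compounds as a control protein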
# Assay Setup: streptavidin binding, higher = more signal
Returns the class for an entry based on its composite z-score. Class ranges: LOW = under 0.2, MID = from 0.2 up to 0.5, HIGH = 0.5 and over

Molecule | Group
COc1cccc(C[C@H]2C[C@@H](CO[Si](C(C)C)(C(C)C)C(C)C)N3C(=O)[C@@]4(C(C)=O)O[C@@]23[C@@H]2C(=O)N(C)C(=O)[C@@H]24)c1 | LOW
C=CCC(OC(C)=O)[C@@H]1[C@@H](N(Cc2cc3ccccc3o2)C(=O)c2ccc(-c3ccccc3)cc2)c2cc(OCCCO)ccc2N1C(=O)c1ccc2ccccc2n1 (stereo partly drawn) | MID
COCCOC(=O)N1C(=O)[C@@]2(c3cc(C#CC4(O)CCCCCC4)ccc31)[C@H](c1ccc(OCCO)cc1)N1[C@H](c3ccccc3)[C@H](c3ccccc3)OC(=O)[C@H]1[C@@H]2C(=O)N1CCCCCCC1 | HIGH
COCCCNC(=O)[C@@H]1c2ccccc2C(=O)N(C2CCCCC2)[C@H]1c1ccc(CO)cc1 | LOW
CCC[C@@H]1[C@@H](Sc2ccccc2)[C@@H](C(=O)O)[C@H](c2ccc(C)cc2)N1S(=O)(=O)c1ccc(C)cc1 | HIGH
C=CCC(OC(C)=O)[C@@H]1[C@@H](N(Cc2cc3ccccc3o2)C(=O)Cc2ccc(OC)cc2)c2cc(OCCCO)ccc2N1C(=O)Cc1ccc(OC)cc1 (stereo partly drawn) | LOW
COCCOC(=O)N1C(=O)[C@@]2(c3cc(C#CC4(O)CCCCCC4)ccc31)[C@H](c1ccc(OCCO)cc1)N1[C@H](c3ccccc3)[C@H](c3ccccc3)OC(=O)[C@H]1[C@@H]2C(N)=O | MID
CC=CC(O)C1C=CC2C(=O)N(C)C(=O)C2N1NC(=O)OC(C)(C)C (stereo not drawn) | MID
CCOC(=O)C1=C[C@@H](C(C)(C)C)N(S(=O)(=O)c2ccc(C)cc2)[C@H]1c1ccccc1Cl | HIGH
CC(C)C[C@@H]1NC(=O)[C@@]23C(=O)N[C@@H](Cc4ccccc4)C2[C@H](C)[C@@]2(C)O[C@H]2C3/C=C/C/C=C\CNC(=O)[C@@H](CC(C)C)NC1=O (stereo partly drawn) | LOW
COCCOC(=O)N1C(=O)[C@@]2(c3cc(C#CCC(C(=O)OC)C(=O)OC)ccc31)[C@H](C(N)=O)[C@H]1C(=O)O[C@H](c3ccccc3)[C@H](c3ccccc3)N1[C@@H]2c1ccc(OCCO)cc1 | HIGH
[N-]=[N+]=Nc1ccccc1[C@@H]1OC(c2ccc(OCCCO)cc2)=N[C@]1(Cc1ccccc1)C(N)=O | HIGH
O=C1N(CCS(=O)(=O)c2ccccc2)c2ccccc2[C@@H]2OC(c3ccc(OCCCO)cc3)=N[C@]12CCS(=O)(=O)c1ccccc1 | HIGH

====

# Procedure Details: PSAC antagonists in infected red cells, primary screen, cell-based, P. falciparum Indochina, OD700, 1 h (AID 1154)
# Assay Setup: P. falciparum Indochina infected RBC osmotic lysis, higher = more signal, called active from +8 up or from −8 down
Property: z-score; scope: individual molecules
Reported Property: z-score

Molecule | Reported Property | Experimental Result
COCCOC(=O)N1C(=O)[C@@]2(c3cc(C#CCCO)ccc31)[C@H](C(=O)N1CCN(c3ncccn3)CC1)[C@H]1C(=O)O[C@H](c3ccccc3)[C@H](c3ccccc3)N1[C@@H]2c1ccc(O)cc1 | z-score | 1.78
COCCCNC(=O)[C@@H]1c2ccccc2C(=O)N(Cc2cc(C(F)(F)F)cc(C(F)(F)F)c2)[C@H]1c1ccc(CO)cc1 | z-score | 1.58
O=C1NC(=O)C2C1C=CC(C(O)c1cccc(O)c1)N2Nc1ccc(Cl)cc1Cl (centres undefined) | z-score | 4.82
COc1cccc(C[C@H]2C[C@@H](CO[Si](C(C)C)(C(C)C)C(C)C)N3C(=O)[C@@]4(C(C)=O)O[C@@]23[C@@H]2C(=O)N(C)C(=O)[C@@H]24)c1 | z-score | 1.31

====

# Test system: Wnt5a (protein binding on small-molecule microarray)
# Procedure Details: Wnt5a binders on small-molecule microarray, primary screen, biophysical, 635/667 nm fluorescence (AID 1142);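 also: fluorescence read at 667 nm with signal to noise per printed feature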
# Assay Setup: 635 nm fluorescence, higher = more signal
Reported Property: composite z-score

Molecule | Experimental Result
CCCC=C(CCC)[C@@H](NS(=O)(=O)c1ccc(Cl)cc1)c1ccccc1 | 0.0207
COCCOC(=O)N1C(=O)[C@@]2(c3cc(C#CC4=CCCCC4)ccc31)[C@H](C(=O)N1CCc3cc(OC)c(OC)cc3C1)[C@H]1C(=O)O[C@H](c3ccccc3)[C@H](c3ccccc3)N1[C@@H]2c1ccc(O)cc1 | 0.718
COc1ccc(CCNC(=O)[C@@]2(Sc3ccc(C)cc3)CC(=O)N(Cc3cc(C(F)(F)F)cc(C(F)(F)F)c3)[C@@H]2c2ccc(CO)cc2)cc1 | -0.668
CC(C)C[C@@H]1NC(=O)[C@@H]2C[C@H](C(=O)O)[C@H](c3ccc(O)cc3)N2C1=O | 0.415
COCCOC(=O)N1C(=O)[C@@]2(c3cc(C#CCC(C(=O)OC)C(=O)OC)ccc31)[C@H](C(=O)N1CCCCCCC1)[C@H]1C(=O)O[C@H](c3ccccc3)[C@H](c3ccccc3)N1[C@@H]2c1ccccc1OCCO | 1.21
O=C1C2C=CC(C(O)c3cccc(O)c3)N(Nc3ccccc3F)C2C(=O)N1c1ccccc1 (configuration not stated) | -0.333
COCCOC(=O)N1C(=O)[C@@]2(c3cc(C#Cc4ccc(OC)cc4)ccc31)[C@H](c1ccc(OCCO)cc1)N1[C@H](c3ccccc3)[C@H](c3ccccc3)OC(=O)[C@H]1[C@@H]2C(=O)N1CCCCCCC1 | 0.713
Cc1ccc(S[C@]2(C(=O)NCC(F)(F)F)CC(=O)N(C3CCCCC3)[C@@H]2c2ccc(CO)cc2)cc1 | 0.0911
CC(C)(C)OC(=O)CC[C@]1(C(N)=O)N=C(c2ccc(OCCCO)cc2)O[C@H]1c1ccccc1CN=[N+]=[N-] | 0.602
COCCOC(=O)N1C(=O)[C@@]2(c3ccccc31)[C@H](C(N)=O)[C@H]1C(=O)O[C@H](c3ccccc3)[C@H](c3ccccc3)N1[C@@H]2c1ccc(OCCO)cc1 | 0.62
COCCOC(=O)N1C(=O)[C@@]2(c3cc(C#CCC(C(=O)OC)C(=O)OC)ccc31)[C@H](C(N)=O)[C@H]1C(=O)O[C@H](c3ccccc3)[C@H](c3ccccc3)N1[C@@H]2c1ccc(OCCO)cc1 | 0.787
CCOC(=O)C[C@H]1[C@H](OC(=O)c2ccc(-c3ccccc3)cc2)[C@@H](NC(=O)c2ccc3ccccc3c2)c2cc(OCCCO)ccc2N1C(=O)c1ccccc1 | 0.247
Cc1c(NC(=O)/C(C#N)=C/c2ccc(Cl)cc2)c(=O)n(-c2ccccc2)n1C | -0.159
C=CCC(OC(C)=O)[C@@H]1[C@@H](N(Cc2ccc(-c3ccccc3)cc2)C(=O)c2cccc3ccccc23)c2cc(OCCCO)ccc2N1C(=O)c1ccc2ccccc2c1 (some centres not stated) | 0.0959
C=CCOC(=O)[C@H]1[C@@H]2C(=O)O[C@@H](c3ccccc3)[C@@H](c3ccccc3)N2[C@@H](c2ccc(OCCOC(=O)[C@@H]3C[C@@H]4C(=O)N[C@@H](CC(C)C)C(=O)N4[C@@H]3c3ccc(O)cc3)cc2)[C@]12C(=O)Nc1ccc(I)cc12 | 0.15
COCCn1c(C(=O)N2CCCC2)cc2c1C[C@H]1CN(C(=O)c3ccccc3)[C@@](Cc3ccccc3)(C(=O)OC)[C@@H]21 | 0.576
C=CC[C@]1(C(=O)N(C)C)COC(c2ccc(OCCCO)cc2)=N1 | 1.07
CC1(C)OC[C@@]23C=C(Br)[C@@H](C[C@H]12)[C@@]1(CO1)C3=O | 0.0405
COc1cc2c(cc1O)C(C1CC1)N(Cc1ccc([N+](=O)[O-])o1)CC2 (configuration not stated) | 0.128
COCC1=C([C@H](O)CCc2ccccc2)[C@H](CO)n2c(=O)n(-c3ccccc3)c(=O)n2C1 | -0.419
CCCC[C@H]1OB(O)C[C@H]2C1=C(C)C[C@H]1C(=O)C=CC(=O)[C@H]12 | -0.0289
CC(C)C[C@H]1NC(=O)[C@@H](C)NC(=O)[C@@]23C(=O)N[C@@H](Cc4ccccc4)C2[C@H](C)[C@@]2(C)O[C@H]2C3/C=C/C/C=C\CNC1=O (some centres not stated) | -0.134
COCCOC(=O)N1C(=O)[C@@]2(c3cc(C#CC4(O)CCCCCC4)ccc31)[C@H](c1ccccc1OCCO)N1[C@H](c3ccccc3)[C@H](c3ccccc3)OC(=O)[C@H]1[C@@H]2C(=O)N1CCCCCCC1 | 0.611
CC(C)C(=C=CC[C@@H](O)c1cccc(OCCO)c1)CCO | 0.263
CCCCC(O)C1C=CC2C(=O)NC(=O)C2N1Nc1ccc(Cl)cc1Cl (configuration not stated) | -0.188
COC(=O)[C@@]1(CCC(=O)OC(C)(C)C)N=C(c2ccc(OCCCO)cc2)O[C@H]1c1ccccc1CN=[N+]=[N-] | 0.113
Cc1ccc(F)cc1S(=O)(=O)N[C@@H]1CCN(Cc2ccc3c(c2)OCO3)C1 | -0.212
